Here the recorded melting point is given for each entry.

Here are 5 compounds together with their reported answers.
{"COMPOUND": "CCOC(=O)c1cn(C)c2cnc3cc(F)c(N4CCN(c5cccc(OC)c5)C(C)C4)cc3c2c1=O (stereo not given)", "PARAMETER": "melting point", "MEASURED": "226 °C"}
{"COMPOUND": "O=C(Nc1ccccc1)Nc1onc2c1CCC2", "PARAMETER": "melting point", "MEASURED": "202 °C"}
{"COMPOUND": "O=c1[nH]c(=S)c2[nH]cnc2n1Cc1ccccc1", "PARAMETER": "melting point", "MEASURED": "262 to 263 °C"}
{"COMPOUND": "O=C(/C=C/c1ccc(O)cc1)CC(=O)/C=C/c1ccc(O)cc1Cl", "PARAMETER": "melting point", "MEASURED": "131 to 138 °C"}
{"COMPOUND": "CCOC(=O)N1C=CC(c2c(-c3ccccc3)nc3ccc(Cl)nn23)C=N1 (stereo not given)", "PARAMETER": "melting point", "MEASURED": "126 to 131 °C"}

Give the value of melting point reported for the following: CCOC(=O)C(c1ccc(N)cc1)N(C)C(C)C (stereo not given)
70 to 71 °C

Give the value of melting point reported for the following: CC(=O)Oc1c(C2(OC(C)=O)C(=O)c3ccccc3C2=O)ccc(Cl)c1Cl
129 to 136 °C

Give the value of melting point reported for the following: CC(C)(C)OC(=O)NCC1=C(CC(=O)O)CCCC1
118 to 119 °C

Give the value of melting point reported for the following: CS(=O)(=O)Nn1c(=O)[nH]c2cc(C(F)(F)F)c(-c3cccc(C#N)c3)cc2c1=O
291 to 292 °C

Give the value of melting point reported for the following: O=c1c2c(CCc3ccc([N+](=O)[O-])cc3)n[nH]c2c2cccnc2n1-c1ccccc1
260 to 262 °C
